- Procedure Text: Pharmacokinetic assay in mice
- Format: in vivo, BALB/c mice
- Reported Conditions: female, BALB/c, mouse, plasma, ip, 5 mg/kg i.p., read-out: CL/F (converted)
- Protocol: Five female BALB/c mice (6–8 weeks, 18–19 g) per group were purchased from JH Laboratory Animal Co., Ltd. All mice were raised at controlled temperature and humidity and had free access to food and water. Compounds were dissolved in 5% DMSO and diluted with 20% aqueous 2-hydroxypropyl-β-cyclodextrin solution to a stock concentration of 0.5 mg/mL. […] The plasma concentrations of the compounds were analyzed, and the pharmacokinetic parameters were calculated via WinNonlin.

- Compound: "Cl.Cn1cc(CN2CCC3(CCN(c4ncc(C(=O)NO)cn4)C3)C2)c2cc(C#N)ccc21 (stereo not shown)"
  CL/F: "192 mL/min/kg"

---

- Procedure Text: Pharmacokinetic assay in mice
- Assay type: in vivo, BALB/c mice
- Reported Conditions: female, BALB/c, mouse, plasma, ip, 5 mg/kg i.p.
Reported Metric: AUC(0-inf) (ng·h/mL)

- Molecule: "Cl.Cn1cc(CN2CCC3(CCN(c4ncc(C(=O)NO)cn4)C3)C2)c2cc(C#N)ccc21 (centres unmarked)"
  Reported Result: 434
- Molecule: "Cn1cc(CNCC2CCN(c3ncc(C(=O)NO)cn3)CC2)c2ccccc21 [Quisinostat, reference compound]"
  Reported Result: 180

---

Below, each entry is listed alongside its reported half-life at 1 µM.
- Procedure Text: Liver microsome metabolism assay, mouse
- Type: in vitro ADME
- Reported Conditions: mouse, liver microsomes, read-out: T1/2 in liver microsomes

- Molecule: "Cn1cc(CNCC2CCN(c3ncc(C(=O)NO)cn3)CC2)c2ccccc21 [Quisinostat, reference compound]"
  half-life at 1 µM (h): 0.222
- Molecule: "Cl.Cn1cc(CN2CCC3(CCN(c4ncc(C(=O)NO)cn4)C3)C2)c2cc(C#N)ccc21 (centres unmarked)"
  half-life at 1 µM (h): 12.4

---

Below, each entry is listed alongside its reported EC50 at 72 h.
- Procedure Text: In vitro cytotoxicity analysis (CellTiter-Glo), HepG2
- Reported Conditions: human, HepG2 cells

- Compound: "Cl.Cn1c(CN2CCC3(CCN(c4ncc(C(=O)NO)cn4)C3)C2)cc2ccccc21 (stereo not shown)"
  EC50 at 72 h / nM: 1250
- Compound: "Cl.O=C(NO)c1cnc(N2CCC3(CCN(Cc4ccc5ccccc5c4)C3)C2)nc1 (stereo not shown)"
  EC50 at 72 h / nM: 651
- Compound: "COc1ccc2c(c1)c(CN1CCC3(CCN(c4ncc(C(=O)NO)cn4)C3)C1)cn2C.Cl (stereo not shown)"
  EC50 at 72 h / nM: 534
- Compound: "Cl.Cn1cc(CN2CCC3(CCN(c4ncc(C(=O)NO)cn4)C3)C2)c2ccncc21 (stereo not shown)"
  EC50 at 72 h / nM: 1530

---

- Tested on: HepG2 cells
- Procedure Text: In vitro cytotoxicity analysis (CellTiter-Glo), HepG2
- Reported Conditions: read-out: Cytotoxicity EC50, HepG2; 72 h, CellTiter-Glo
Below, each entry is listed alongside its reported EC50.
Reported Metric: EC50 (nM)

- Compound: "Cl.O=C(NO)c1cnc(N2CCC3(CCNC3)C2)nc1 (stereo not drawn)"
  Modifier: ">"
  Reported Result: 10000
- Compound: "Cl.O=C(NO)c1cnc(N2CCC3(CCN(Cc4cccc5ccccc45)C3)C2)nc1 (stereo not drawn)"
  Modifier: "="
  Reported Result: 815
- Compound: "O=C(NO)c1cnc(N2CCN(S(=O)(=O)c3ccc4ccccc4c3)CC2)nc1 [R306465, reference compound]"
  Modifier: "="
  Reported Result: 877
- Compound: "Cl.Cn1cc(CN2CCC3(CC2)CCN(c2ncc(C(=O)NO)cn2)CC3)c2ccccc21"
  Modifier: "="
  Reported Result: 904
- Compound: "Cl.O=C(NO)c1cnc(N2CCC3(CCN(CC4CCCCC4)C3)C2)nc1 (stereo not drawn)"
  Modifier: "="
  Reported Result: 2490
- Compound: "Cl.Cn1cc(CN2CCC3(CC2)CN(c2ncc(C(=O)NO)cn2)C3)c2ccccc21"
  Modifier: ">"
  Reported Result: 10000
- Compound: "Cl.O=C(NO)c1cnc(N2CCC3(CCN(Cc4ccccc4)C3)C2)nc1 (stereo not drawn)"
  Modifier: "="
  Reported Result: 1200
- Compound: "Cl.O=C(NO)c1cnc(N2CCC3(CCN(Cc4ccsc4)C3)C2)nc1 (stereo not drawn)"
  Modifier: "="
  Reported Result: 2120
- Compound: "Cl.Cn1cc(CN2CCC3(CCCN3c3ncc(C(=O)NO)cn3)CC2)c2ccccc21"
  Modifier: "="
  Reported Result: 875
- Compound: "CN(Cc1cn(C)c2ccccc12)C1CCN(c2ncc(C(=O)NO)cn2)CC1.Cl"
  Modifier: "="
  Reported Result: 643
- Compound: "Cl.O=C(NO)c1cnc(N2CCC3(CCN(Cc4cccnc4)C3)C2)nc1 (stereo not drawn)"
  Modifier: "="
  Reported Result: 6420
- Compound: "Cl.O=C(NO)c1cnc(N2CCC3(CCN(Cc4coc5ccccc45)C3)C2)nc1 (stereo not drawn)"
  Modifier: ">"
  Reported Result: 10000
- Compound: "Cl.O=C(NO)c1cnc(N2CCC3(CCN(Cc4ccc(-c5ccccc5)cc4)C3)C2)nc1 (stereo not drawn)"
  Modifier: "="
  Reported Result: 2960
- Compound: "Cn1cc(CNCC2CCN(c3ncc(C(=O)NO)cn3)CC2)c2ccccc21 [Quisinostat, reference compound]"
  Modifier: "="
  Reported Result: 42
- Compound: "Cl.O=C(NO)c1cnc(N2CCC3(CCN(CC4CCCC4)C3)C2)nc1 (stereo not drawn)"
  Modifier: ">"
  Reported Result: 10000
- Compound: "Cl.Cn1cc(CNC2CCN(c3ncc(C(=O)NO)cn3)CC2)c2ccccc21"
  Modifier: "="
  Reported Result: 294
- Compound: "Cl.O=C(NO)c1cnc(N2CCC3(CCN(Cc4cnc5ccccn45)C3)C2)nc1 (stereo not drawn)"
  Modifier: ">"
  Reported Result: 10000
- Compound: "Cl.O=C(NO)c1cnc(N2CCC3(CCN(Cc4ccc5ncccc5c4)C3)C2)nc1 (stereo not drawn)"
  Modifier: "="
  Reported Result: 1250
- Compound: "Cl.O=C(NO)c1cnc(N2CCC3(CCN(Cc4cccs4)C3)C2)nc1 (stereo not drawn)"
  Modifier: "="
  Reported Result: 1690
- Compound: "Cl.Cn1cc(CN2CCC3(CCN(c4ncc(C(=O)NO)cn4)C3)C2)c2ccc(Cl)cc21 (stereo not drawn)"
  Modifier: "="
  Reported Result: 514
- Compound: "Cl.Cn1cc(CN2CCC(CNc3ncc(C(=O)NO)cn3)CC2)c2ccccc21"
  Modifier: "="
  Reported Result: 688
- Compound: "Cl.Cn1cc(CN2CCN(c3ncc(C(=O)NO)cn3)CC2)c2ccccc21"
  Modifier: "="
  Reported Result: 44
- Compound: "Cl.Cn1cc(CN2CCC3(CCN(c4ncc(C(=O)NO)cn4)C3)C2)c2ccc(F)cc21 (stereo not drawn)"
  Modifier: "="
  Reported Result: 178
- Compound: "Cl.Cn1cc(CNC2CCC(Nc3ncc(C(=O)NO)cn3)CC2)c2ccccc21 (stereo not drawn)"
  Modifier: ">"
  Reported Result: 10000
- Compound: "Cl.O=C(NO)c1cnc(N2CCC3(CCN(Cc4ccc5ccccc5n4)C3)C2)nc1 (stereo not drawn)"
  Modifier: "="
  Reported Result: 388
- Compound: "Cl.O=C(NO)c1cnc(N2CCC3(CCN(Cc4ccco4)C3)C2)nc1 (stereo not drawn)"
  Modifier: "="
  Reported Result: 1100
- Compound: "Cl.O=C(NO)c1cnc(N2CCC3(CCN(Cc4ccnc5ccccc45)C3)C2)nc1 (stereo not drawn)"
  Modifier: "="
  Reported Result: 3930
